Reported EC50 values are given for each entry in this list.
System: differentiated human THP-1 cells
Assay: stimulated release of TNF-α from differentiated human THP-1 cells (ELISA, dose-response)
Assay type: cell-based
Settings: Homo sapiens, THP-1, running text; read-out: EC50, stimulated release of TNF-α from differentiated human THP-1 cells
property_label: EC50 (nM)

INSERT INTO measurements (molecule, relational_operator, experimental_result) VALUES
  ('CCCCCCNC(=O)[C@@H]1CN(C(=O)c2ccc(C(=O)N3C[C@@H](C(=O)N[C@H]4C[C@@H]4c4ccccc4)[C@H](C(=O)N[C@H]4C[C@@H]4c4ccccc4)C3)cc2)C[C@H]1C(=O)NCCCCCC', '=', 0.18),
  ('O=C(NCCc1cccc(F)c1)[C@H]1CN(C(=O)c2ccc(C(=O)N3C[C@H](C(=O)NCCc4cccc(F)c4)[C@@H](C(=O)NCCc4cccc(F)c4)C3)cc2)C[C@@H]1C(=O)NCCc1cccc(F)c1 (racemic)', '=', 1000),
  ('O=C(NCCc1ccccc1)[C@@H]1CN(C(=O)c2ccc(C(=O)N3C[C@@H](C(=O)NCCc4ccccc4)[C@H](C(=O)NCCc4ccccc4)C3)cc2)C[C@H]1C(=O)NCCc1ccccc1', '>', 5000),
  ('O=C(NC1C[C@@H]1c1ccc(F)cc1)[C@@H]1CN(C(=O)c2ccc(C(=O)N3C[C@@H](C(=O)NC4C[C@@H]4c4ccc(F)cc4)[C@H](C(=O)NC4C[C@@H]4c4ccc(F)cc4)C3)cc2)C[C@H]1C(=O)NC1C[C@@H]1c1ccc(F)cc1 (stereo partly shown)', '=', 0.13);

###

Reported EC50 values are given for each entry in this list.
Tested on: mouse macrophages
Test: stimulated release of TNF-α from mouse macrophages
Assay type: cell-based
Conditions: Macrophage; Table 1, TNF-α release from mouse macrophages; read-out: EC50 (nM) (mouse)
property_label: EC50

INSERT INTO assay_data (compound, property_label, experimental_result) VALUES
  ('O=C(N[C@H]1C[C@@H]1c1ccccc1)[C@@H]1CN(C(=O)c2ccc(C(=O)N3C[C@@H](C(=O)N[C@H]4C[C@@H]4c4ccccc4)[C@H](C(=O)N[C@H]4C[C@@H]4c4ccccc4)C3)cc2)C[C@H]1C(=O)N[C@H]1C[C@@H]1c1ccccc1 [Compound 3]', 'EC50', '1 nM'),
  ('O=C(N[C@H]1C[C@@H]1c1ccccc1)[C@@H]1CN(C(=O)[C@H]2CC[C@@H](C(=O)N3C[C@@H](C(=O)N[C@H]4C[C@@H]4c4ccccc4)[C@H](C(=O)N[C@H]4C[C@@H]4c4ccccc4)C3)CC2)C[C@H]1C(=O)N[C@H]1C[C@@H]1c1ccccc1 [Compound 43]', 'EC50', '> 5000 nM'),
  ('O=C(N[C@H]1C[C@@H]1c1ccccc1)[C@@H]1CN(C(=O)c2ccc(-c3ccc(C(=O)N4C[C@@H](C(=O)N[C@H]5C[C@@H]5c5ccccc5)[C@H](C(=O)N[C@H]5C[C@@H]5c5ccccc5)C4)cc3)cc2)C[C@H]1C(=O)N[C@H]1C[C@@H]1c1ccccc1 [Compound 39]', 'EC50', '2300 nM'),
  ('O=C(N[C@H]1C[C@@H]1c1ccccc1)[C@@H]1CN(C(=O)c2cccc(C(=O)N3C[C@@H](C(=O)N[C@H]4C[C@@H]4c4ccccc4)[C@H](C(=O)N[C@H]4C[C@@H]4c4ccccc4)C3)c2)C[C@H]1C(=O)N[C@H]1C[C@@H]1c1ccccc1 [Compound 38]', 'EC50', '> 5000 nM'),
  ('O=C(N[C@H]1C[C@@H]1c1ccccc1)C1CN(C(=O)C#CC(=O)N2C[C@@H](C(=O)N[C@H]3C[C@@H]3c3ccccc3)[C@H](C(=O)N[C@H]3C[C@@H]3c3ccccc3)C2)C[C@H]1C(=O)N[C@H]1C[C@@H]1c1ccccc1 (some centres unmarked) [Compound 35]', 'EC50', '> 5000 nM'),
  ('O=C(N[C@H]1C[C@@H]1c1ccccc1)[C@@H]1CN(C(=O)[C@H]2CC[C@H](C(=O)N3C[C@@H](C(=O)N[C@H]4C[C@@H]4c4ccccc4)[C@H](C(=O)N[C@H]4C[C@@H]4c4ccccc4)C3)CC2)C[C@H]1C(=O)N[C@H]1C[C@@H]1c1ccccc1 [Compound 42]', 'EC50', '> 5000 nM'),
  ('O=C(N[C@H]1C[C@@H]1c1ccccc1)[C@@H]1CN(C(=O)COCC(=O)N2C[C@@H](C(=O)N[C@H]3C[C@@H]3c3ccccc3)[C@H](C(=O)N[C@H]3C[C@@H]3c3ccccc3)C2)C[C@H]1C(=O)N[C@H]1C[C@@H]1c1ccccc1 [Compound 40]', 'EC50', '> 5000 nM'),
  ('O=C(N[C@H]1C[C@@H]1c1ccccc1)[C@@H]1CN(C(=O)/C=C/C(=O)N2C[C@@H](C(=O)N[C@H]3C[C@@H]3c3ccccc3)[C@H](C(=O)N[C@H]3C[C@@H]3c3ccccc3)C2)C[C@H]1C(=O)N[C@H]1C[C@@H]1c1ccccc1 [Compound 36]', 'EC50', '> 5000 nM');
